The origin of these recorded values is paper PMC10709440.

target: Drosophila OR47a (Drosophila melanogaster, UniProt P81921); construct: expressed in transfected cells; assay: Calcium ion fluorescence (GCaMP6) assay, OR47a stable HEK293 cell line; assay type: cell-based; settings: OR47a cell line; odorant cc. 10 µM; mean of biological replicates
Sequence (P81921 whole entry): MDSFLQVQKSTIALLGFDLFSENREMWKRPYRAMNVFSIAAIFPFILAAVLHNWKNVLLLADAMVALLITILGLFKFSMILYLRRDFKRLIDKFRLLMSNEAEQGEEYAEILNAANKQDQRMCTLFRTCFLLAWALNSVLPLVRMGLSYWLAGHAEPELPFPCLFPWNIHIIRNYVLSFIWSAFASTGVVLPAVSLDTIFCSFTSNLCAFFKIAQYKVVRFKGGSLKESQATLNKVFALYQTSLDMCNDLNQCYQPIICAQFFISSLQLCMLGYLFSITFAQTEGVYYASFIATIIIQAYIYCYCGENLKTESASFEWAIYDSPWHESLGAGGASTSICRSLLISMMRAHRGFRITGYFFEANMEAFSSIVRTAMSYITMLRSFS
Sequence (Q9VNB5 whole entry partner): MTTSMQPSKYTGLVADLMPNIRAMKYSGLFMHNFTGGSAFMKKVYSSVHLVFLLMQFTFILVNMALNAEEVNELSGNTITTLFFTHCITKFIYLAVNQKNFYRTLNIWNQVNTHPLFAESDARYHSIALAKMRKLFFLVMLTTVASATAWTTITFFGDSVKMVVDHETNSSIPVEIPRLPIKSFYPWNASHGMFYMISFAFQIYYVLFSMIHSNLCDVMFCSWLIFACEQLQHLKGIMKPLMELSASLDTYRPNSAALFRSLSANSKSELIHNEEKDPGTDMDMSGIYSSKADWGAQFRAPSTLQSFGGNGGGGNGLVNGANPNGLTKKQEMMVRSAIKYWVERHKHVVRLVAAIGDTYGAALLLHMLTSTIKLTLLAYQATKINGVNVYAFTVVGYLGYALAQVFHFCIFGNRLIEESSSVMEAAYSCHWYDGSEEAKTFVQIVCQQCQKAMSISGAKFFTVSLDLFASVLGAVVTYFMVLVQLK
resultType: Average response
Lab note: record just the number, no unit beside it.

Looking for the measured Average response of CC/C=C\CCOC(C)=O [z3-hexenyl acetate] , can you help?
0.67

Now the same for CCCCCCCCC(CO)CCCCCC (stereo not shown)
0.05

Now the same for CCCC(=O)OCC [ethyl butyrate]
0.00

Now the same for CC1=CCC2CC1C2(C)C (stereo not shown)
0.00

Now the same for CCCCCOC(C)=O [pentyl acetate]
0.85

Now the same for CCCCCC(C)O (stereo not shown)
0.06

Now the same for `CC/C=C\CCO`
0.0571

Now the same for CCOC(=O)c1ccccc1 [ethyl benzoate]
0.00

Now the same for COC(=O)c1ccccc1 [methyl benzoate]
0.00

Now the same for `OCCc1ccccc1`
0.0644

Now the same for `CCCCCC(C)=O`
0.19

Now the same for CC(=O)OCCC(C)C [isopentyl acetate]
0.12

Now the same for `Cc1ccc(O)cc1`
0.0217
